Experiment: protein stability index of a GFP-peptide fusion (yeast GPS) (PSI 1-4); higher = more stable; sorted into four equal gates, so the index is relative within each strain
Details: san1∆
# protein stability index per record follows
// response body must contain only the number

primary_sequence: SSTPKFTKKPVTPNDKI [SIR4]
measured: 2.96
//
primary_sequence: LQKAVRGHVLQFEWHQN [SNF2]
measured: 1.37
//
primary_sequence: KDWTDTFVYILEKLIFD [SRB8]
measured: 2.73

Query: protein stability index; subject: EYLKGSESQLNSTLKKV [YCS4]
2.5

Now the same for QDEEQTEHLTELSDNEE [YCG1]
3.33

Now the same for NFALTTLIDLVKHSPGA [ECM29]
1.49

Now the same for NEKLECISLGSTKLSRP [ITC1]
2.44

###

Assay: protein stability index of a GFP-peptide fusion (yeast GPS) (PSI 1-4); higher = more stable; sorted into four equal gates, so the index is relative within each strain
Conditions: pdr5∆
Could you label it Criterion met if measured protein stability index is 3 or higher, and Criterion not met otherwise?

Example cases with answers are listed next.
primary_sequence: LWKLLSTVKVSDLNLTD [YLR018C/POM34]
discrete_label: Criterion not met
//
primary_sequence: PSYAERQSSDESDNYRL [YML031W/NDC1]
discrete_label: Criterion not met
//
primary_sequence: LVRYGLAEKVEKASRQQ [RPS24A]
discrete_label: Criterion met
//
primary_sequence: LNEAPFPEENIIDAKTR [MCD1]
discrete_label: Criterion met
//
primary_sequence: WDLSVEDALYLGKRSIL [PRE2]
discrete_label: Criterion met
//
primary_sequence: LKSTKHSISEAENMLEE [SMC4]
discrete_label: Criterion not met

Has TAAEKKERLTKEAAAVA [RPL8A] a recorded protein stability index greater than or equal to 3?
Criterion not met

###

Experiment: protein stability index of a GFP-peptide fusion (yeast GPS) (PSI 1-4); higher = more stable; sorted into four equal gates, so the index is relative within each strain
Conditions: san1∆
attribute_measured: protein stability index
// response body must contain only the number

Below: 2 sequences and their reported protein stability index.
primary_sequence: LDTQLNDLRVSLNEKNA [SMC1]
measured: 3.41
--
primary_sequence: SFEETVEILFEAGASAE [RPO21]
measured: 2.89

Query: protein stability index; subject: TDSDFAKYHAKLNKKLQ [SRP68]
2.84

Now the same for ESILQMNQGEGEPEAGN [RPC34]
3.46

Now the same for VFSESCSNESFASIPVS [SNU114]
2.88

Now the same for VPPIASPQQFLRAHTDD [PRE2]
2.17

Now the same for MAESLVDLEEVMDTIQE [SSN8]
3.2

Now the same for GKVVGDKWESYLNLLQE [RPB10]
2.49

Now the same for TRVNAQLESYEYMVQYI [RRI1]
3.42

Now the same for FNFVLLGQIGACHVEVP [COB]
1.2

Now the same for SNIQRNVLFLRLFNNVK [SRP72]
1.49

Now the same for QEQVQDYVNKTNSHLPA [FAS1]
2.62

Now the same for LDPYERAIYSYLSGAIP [YDL116W/NUP84]
3.13

Now the same for VYNLALKCAERQLTSME [NUT1]
2.09

###

# protein stability index per record follows
Assay: protein stability index of a GFP-peptide fusion (yeast GPS) (PSI 1-4); higher = more stable; sorted into four equal gates, so the index is relative within each strain
Details: doa10∆

Below: 4 sequences and their reported protein stability index.
primary_sequence: NTLEFIIEQLSIAAERY [YCG1]
measured: 2.29
--
primary_sequence: GNAPATPSSDQNPLPTR [SOH1]
measured: 3.44
--
primary_sequence: FQLIDMKDKEINIQKYN [CSI1]
measured: 2.47
--
primary_sequence: ILSLEQSSRVVSLSQLL [YCS4]
measured: 1.84

Query: protein stability index; subject: MKPSEILSLIEEAAGTK [SMC2]
3.24

Now the same for YCKGKTCRKHTQHKVTQ [RPL42A]
2.77

Now the same for ENEEFITFLQTLYIGNT [ECM29]
2.06

Now the same for SKKQRNNGSKDHGDGIL [RPN9]
3.37

###

# protein stability index per record follows
Test: protein stability index of a GFP-peptide fusion (yeast GPS) (PSI 1-4); higher = more stable; sorted into four equal gates, so the index is relative within each strain
Settings: pdr5∆
// response body must contain only the number

Below: 5 sequences and their reported protein stability index.
primary_sequence: RILQQLKLDKIIHVLTT [RGR1]
protein stability index: 1.21

primary_sequence: ERSICALGEFADWDPES [YML031W/NDC1]
protein stability index: 3.53

primary_sequence: MSKITSSQVREHVKELL [RPL1A]
protein stability index: 2.09

primary_sequence: RVVYLKHLEDNTLLVTG [RPL6B]
protein stability index: 1.12

primary_sequence: ATVPSAPYRKQIISNAH [YAR002W/NUP60]
protein stability index: 2.41

Query: protein stability index; subject: SDIPVSENVFEGLTYKY [SSN3]
1.89

Now the same for HIKKLLHQYYGDDESKI [FAS1]
2.9

###

Assay: protein stability index of a GFP-peptide fusion (yeast GPS) (PSI 1-4); higher = more stable; sorted into four equal gates, so the index is relative within each strain
Conditions: pdr5∆
# protein stability index per record follows

primary_sequence: LQEIYQTDAIKSDEAKW [RPN5]
protein stability index: 2.5
//
primary_sequence: QEFFFHAMGGREGLIDT [RPO21]
protein stability index: 2.17
//
primary_sequence: ICYNKKTEYVLNDLNHL [REC8]
protein stability index: 1.75

Query: protein stability index; subject: RNAEFKVSKNSTSFKNP [YMR153W/NUP53]
2.13

Now the same for RGNKVNKQIEILTDLVN [ITC1]
2.75

Now the same for TVQYVRFFWKRSTNKKS [UBP6]
1.35

Now the same for FVDLVEHFLKLNIDFGS [YML103C/NUP188]
2.46

Now the same for ERHGYIRGIVKQIVHDS [RPL2A]
1.84

Now the same for ETISKLNEYKRETLVKT [SMC2]
1.99

Now the same for FSSPAALMKTLIKFVDL [NUT1]
1.68

Now the same for KVGQFDQVLNLCLTEFE [FAS1]
2.97

Now the same for RQNKVQHQRIVAFVCSP [RPN10]
1.4

Now the same for ALDGDLIELLEKLDVSR [YCG1]
3.42

Now the same for DDSDNVMSSDDENAPVA [PRE10]
3.42

Now the same for LLIIRSLKNTDALLNST [YJL039C/NUP192]
3

Now the same for FEKNTILQQRSKINSTE [MED4]
3.07

Now the same for RDREPKEPVALIETVRQ [RPN2]
3.47

Now the same for NGEIKGENIDADNDGPR [SNF2]
3.48

Now the same for FNLISNAGTEKEKESKK [YLR335W/NUP2]
3.35

Now the same for EKSLLPKIETNVYVGMT [ISW2]
2.97

Now the same for NPIHVSRHFASYANLPG [FAS1]
2.36

Now the same for NVRSSVLQKVIEWAEHH [SKP1]
2.91

Now the same for STYLPKLISAFDDLEVE [RRP42]
2.75

###

Test: protein stability index of a GFP-peptide fusion (yeast GPS) (PSI 1-4); higher = more stable; sorted into four equal gates, so the index is relative within each strain
Conditions: doa10∆
attribute_measured: protein stability index
// response body must contain only the number

primary_sequence: LRQKHEFLEDFDLVRNI [SMC2]
protein stability index: 3.1
--
primary_sequence: PRRDGERKRKSVRGAIV [RPS6A]
protein stability index: 3.16
--
primary_sequence: SLRILAKLSERSNGSVA [YJL039C/NUP192]
protein stability index: 2.5
--
primary_sequence: THSYNFMRQNLEWNMAN [RPC82]
protein stability index: 2.45
--
primary_sequence: MINGRKLIKFETRNEDD [FAS1]
protein stability index: 2.9
--
primary_sequence: DGNNANYIYAGYENGML [RPN14]
protein stability index: 2.73
--
primary_sequence: SLSKISQAFDIVAALPI [RPP1]
protein stability index: 3.18
--
primary_sequence: SYAGKQVVGPFHTSFSA [SMC4]
protein stability index: 2.7

Query: protein stability index; subject: LDKLNCAINSKSRGSDL [RRP6]
2.81

Now the same for RIIRKKIFIAVVWYQRL [RRI2]
1.28

Now the same for SDNNSRIMSRNFYLKRF [SWI1]
2.73

Now the same for DSSSVSEDSAVFKATSS [FAS1]
3

Now the same for VNDEEEHKQLVAEIVQN [RPC82]
2.64

Now the same for TQQAVNLEKNYLAKLSK [IRR1]
3.06

Data provenance: the supplement of paper PMC9732359
